Test: Toxicity liver stage against HepG2, at 10uM
Assay type: cell-based
Parameters: test concentration 10 uM, cell line HepG2-A16-CD81EGFP
Details: human, HepG2-A16-CD81EGFP cells; read-out: INHIBITION
parameter: cytotoxicity at 10 µM (%)
// note: answer is a bare numeric in %

Query: cytotoxicity at 10 µM; subject: OCCOCc1nnn2c1CN(c1ncccn1)CCC2
Result: -10.5

Query: Item: O=C(NCc1nn(-c2ccccc2)c2c1CCC2)NC1CCOCC1
Result: -8.72

Query: # repeat for CN(C)c1nc(N)nc(CN2CCCC2c2ccsc2)n1 (configuration not stated)
Result: -19.6

Query: # repeat for Cc1cc(NC(=O)CN2CCc3cncnc3C2)on1
Result: -17.6

Query: Lookup Cc1nc2c(c(N3CCN(Cc4ccco4)CC3)n1)CCNCC2
Result: -4.27

Query: What about this molecule? O=C(NS(=O)(=O)c1cccc(C(F)(F)F)c1)c1cscn1
Result: 1.67

Query: What do you have for Cc1ccoc1CNCc1nnc2n1CCCC2C(F)(F)F (configuration not stated) ?
Result: 13.9

Query: Repeat for the following molecule: O=C(NCc1cncc2c1CCN(C1CCOC1)C2)c1ccco1 (configuration not stated)
Result: 0.797

Query: For CCCC1c2ccccc2CCN1CCS(C)(=O)=O (configuration not stated) then?
Result: -0.846

Query: Can you handle O=C(Cc1noc(C(=O)NCCO)n1)Nc1cccc(C(F)(F)F)c1 next?
Result: 8.9

Query: Then Cc1ncnc2c1CCN(C(=O)c1ccsc1)CC2 ?
Result: -0.443

Query: Now consider C[C@]1(O)CCN(Cc2ncccc2F)C[C@@H]1Oc1cccc(F)c1 and answer again.
Result: -1.37

---

Record form. Attribute: cytotoxicity at 10 µM. Fill in for each entry.
Assay: Toxicity liver stage against HepG2, at 10uM
Assay type: cell-based
Set-up: test concentration 10 uM, cell line HepG2-A16-CD81EGFP
Details: human, HepG2-A16-CD81EGFP cells; read-out: INHIBITION

Query: What measured cytotoxicity at 10 µM goes with Cc1nnc(CN(CCc2ccccc2)C2CCN(C)CC2)s1 ?
Result: 0.219%

Query: Try COCC(=O)N1C[C@@H](OCc2cccnc2)[C@H]2OCCC[C@@H]21 next.
Result: 2.53%

Query: Consider next the molecule CC(C)n1nccc1CN1Cc2nccn2CC1c1ccccc1 (stereo not drawn) in the same way.
Result: 5.38%

Query: Item: COc1ccc(C)cc1NC(=O)CNc1ccn(CC(N)=O)n1
Result: -8.28%

Query: Next molecule: OCCN1CCC(F)(F)C2(CCN(c3cnccn3)C2)C1 (stereo not drawn)
Result: 8.24%

Query: // next record COc1cc2c(cc1C1CC(=O)NCc3nc(N(C)C)sc31)CCC2 (stereo not drawn)
Result: 1.16%

Query: And what about the molecule Cc1ccccc1C(C(=O)N(Cc1cnn(C)c1)CC(C)C)N(C)C (stereo not drawn) ?
Result: 2.66%

Query: Okay, and O=C(CCn1cncn1)NC1(c2cccc(Br)c2)CCC1 ?
Result: -20.2%

Query: Can you handle C[C@@H](CO)Nc1nccc(-c2cnc3sc(Cl)cn3c2=O)n1 next?
Result: 2.52%

Query: One more molecule: COc1ccccc1NC(=O)c1cnc(C2CCN(C(C)=O)C2)nc1C (stereo not drawn)
Result: 6.42%

Query: Now the same for O=C(NCCNC(=O)C1CC1)c1sccc1Br
Result: 1.66%

Query: One more molecule: CCN(Cc1ccc2c(c1)OCO2)c1ncc(S(N)(=O)=O)s1
Result: 8.14%

Query: Another molecule: CC(NC(=O)CCC(C)(C)C)C(=O)Nc1ccc(-n2cncn2)cc1 (stereo not drawn)
Result: -3.46%

Query: Now consider Cc1c(Cn2ccnc2-c2cc(CN(C)C)cs2)cnn1C .
Result: -0.309%

Query: Cool, now CN1CC2(CCN(C(=O)Cc3ccc(O)c(F)c3)CC2)CC1=O
Result: 1.87%

Query: Check Cc1cc(CNC(=O)c2cccs2)ccc1S(C)(=O)=O too.
Result: 3.38%

Query: // same read-out, input: O=C(N1CCOCC1)N1CCc2ncnc(Oc3cccnc3)c2CC1
Result: -0.82%

Query: What about this molecule? Cc1nc(C)c(C(=O)N2C[C@@H](C(=O)O)[C@H](C3CC3)C2)s1
Result: 7.53%

Query: Continue with CCn1cnnc1CNC(=O)c1cc(Cl)ccc1OC
Result: 5.87%

Query: Then what about the molecule COCCCN(CCOC)C(=O)Nc1ccccc1-n1cccn1 ?
Result: 1.51%

Query: Follow-up item: O=C(NCCCOCC1CC1)Nc1ccc(-n2cncn2)c(F)c1
Result: -0.132%

Query: Input COc1cc(CN2CC[C@@H](N3CCCCCC3)[C@H](O)C2)cc(Cl)c1OC
Result: -1.47%

Query: Item: Cn1cc(N2CC3(CCN(Cc4ccsc4)CC3)OCC2=O)cn1
Result: -82.8%

Query: Query OCCN1CCC(CNCc2cn(-c3ccccc3)nn2)CC1 next
Result: 0.03%

Query: Try this molecule next: CCOC(=O)C1CCCN(c2ccc(-c3nc(C)no3)cn2)C1 (stereo not drawn)
Result: -3.74%

Query: Also CC(C)CC1(C(=O)NCCc2nncn2C2CC2)CCC1 , if possible.
Result: -1.06%

Query: And what about the molecule CC(=O)N1CCCn2nc(CNc3cc(C)ncn3)cc2C1 ?
Result: 5.19%

Query: Check O=C(c1ccccn1)N1CCC2(CC1)COC(COCC1CCCC1)C2 (stereo not drawn) too.
Result: -1.18%

Query: Also O=C(NCc1ccc(N2CCSCC2)cc1)NCc1cc[nH]n1 , if possible.
Result: -0.645%

Query: Please give the result for COCCN(CC(N)=O)CC1CCCN(C2Cc3ccccc3C2)C1 (stereo not drawn) too.
Result: -3.01%

Query: Continue with CCc1nc(CN2CCCN(CC(=O)Nc3cccnc3)CC2)no1
Result: -17.4%

Query: Also Cc1ccc(CC(=O)N2CCCCC2c2nc(C)cs2)cn1 (stereo not drawn) ?
Result: 2.6%

Query: // query: Cc1cn2c(n1)CCC(NC(=O)CCOc1ccccc1F)C2 (stereo not drawn)
Result: 5.27%

Query: Also, Cc1nc(CC(=O)N2CCCCC2c2ccn3ccnc3n2)cs1 (stereo not drawn) please.
Result: -13.4%

Query: Input Cc1scc(C(=O)N2CCC3(CCCN(C)C3=O)C2)c1-c1ccccc1 (stereo not drawn)
Result: -6.05%

Query: And the next one, CNc1nccnc1C1CN(C(=O)c2cc[nH]n2)CCO1 (stereo not drawn) ?
Result: -12.3%

Query: Field entry: c1ccc(-c2nc(CN3CCn4c(nnc4C4CC4)C3)no2)cc1
Result: -3.47%

Query: Likewise for O=C(CCCn1cncn1)NC1CCc2nccn2C1 (stereo not drawn) ?
Result: 2.03%

Query: Item: Cc1cc(C)cc(NCCC(=O)NCc2cccnc2N(C)C)c1
Result: -0.211%

Query: Then what about the molecule COc1ccccc1CN1CCCC2(Cc3ccccc3CNC2=O)C1 (stereo not drawn) ?
Result: 6.2%

Query: Record: COCCN(C)C[C@@H]1CN(C(=O)c2ccc(C)c(Cl)c2)C[C@@H]1CO
Result: -0.678%

Query: What about CCO[C@H]1CN(CC2CCOCC2)[C@@H]2CCCO[C@H]12 ?
Result: -109%

Query: Try this molecule too: COc1ccc(CC(=O)N2CCCC(n3cc(C)cn3)C2)cc1F (stereo not drawn)
Result: 1.88%

Query: Please answer likewise for Cc1cnc(N2CCC3(CC2)CC3CNC(=O)N(C)C)nc1 (stereo not drawn)
Result: 8.82%

Query: Now consider COc1ccc(C[C@H]2CNCC[C@@H]2OC)cc1 .
Result: 3.11%

Query: Proceed to CCn1nc(C(C)C)cc1C(=O)NCc1nc2ccc(OC)cc2[nH]1
Result: 4.28%

Query: Now the molecule O=C(NCCc1ccc(Cl)s1)NCc1nnc2n1CCC2
Result: -7.15%

Query: For CN(Cc1noc(C2CC2)n1)C1CCN(Cc2ccc(F)c(F)c2)C1 (stereo not drawn) then?
Result: -0.279%

---

Could you please report measured cytotoxicity at 10 µM for the items listed next?
Experiment: Toxicity liver stage against HepG2, at 10uM
Assay type: cell-based
Parameters: test concentration 10 uM, cell line HepG2-A16-CD81EGFP
Conditions: human, HepG2-A16-CD81EGFP cells; read-out: INHIBITION
Response body: numeric value in %, unit text excluded.

Query: Need cytotoxicity at 10 µM of CCn1ncc2c1CN(CCc1cccc(Cl)c1)CC2COC (configuration not stated) , thanks.
Result: -98.4

Query: CC(=O)N1CCC2(CCN(C(=O)c3ccc(F)c(C(F)(F)F)c3)C2)C1 (configuration not stated) , same question.
Result: -76.1

Query: How about this compound: Cc1nsc(NC(=O)N2CCc3sccc3C2)n1
Result: 18.5

Query: Try this compound too: CC(C)CS(=O)(=O)CC(=O)N1CCCC1c1noc(C2CC2)n1 (configuration not stated)
Result: 13.4

Query: How about this compound: O=C(CCc1cccs1)N1CCCC(N2CCNC2=O)C1 (configuration not stated)
Result: -6.7

Query: Let us now turn to CCN(CC)C(=O)c1nnsc1-c1ccc(Cl)cc1
Result: 2.74

Query: Also CC(C)CCN(C)Cn1ncc2cn(-c3ccccc3)nc2c1=O , if possible.
Result: 6.72

Query: Now try CCCc1cnc(C)nc1N1CCC(Cn2cc(C(C)O)nn2)CC1 (configuration not stated) .
Result: 1.92

Query: Lookup Cc1c(C2CCCN(C(=O)Cc3ccccn3)C2)n2c(nc1=O)CCC2 (configuration not stated)
Result: 8.39

Query: O=C(c1ccc(-c2ccsc2)nc1)N1CCCN(C2CCCCC2)CC1 ?
Result: 6.67

Query: And for O=C(c1cnco1)N1CCCC(Cc2nccs2)C1 (configuration not stated) ?
Result: 4.84

Query: Same question, O=C(CN1CCC2(CCCCC2)C1)NCC(F)(F)F this time
Result: -10.5
